Sourced from ChEMBL document CHEMBL4602676

Measured AUC at 24 h of individual entries
Experiment: AUC in Wistar rat at 10 ml/kg, po or 2 ml/kg, iv measured upto 24 hrs by LC-MS/MS analysis
Type: ADME, organism-based
Conditions: in vivo
Kindly answer with a numeric value in ng·h/mL, unit omitted.

Below: 8 compounds and their reported AUC at 24 h.
Cl.Clc1ccc(OC[C@@H]2C[C@@H]3C[C@@H]3N2)cn1 | 1620
Cl.Clc1ccc(OC[C@@H]2C[C@H]3C[C@H]3N2)cn1 | 3510
Cl.Clc1ncccc1OC[C@@H]1C[C@H]2C[C@H]2N1 | 2160
Cl.Clc1ccc(OC[C@@H]2CC[C@H]3C[C@H]3N2)cn1 | 4480
Cl.Fc1ccc(OC[C@@H]2C[C@H]3C[C@H]3N2)cn1 | 15600
Cl.c1cncc(OC[C@@H]2C[C@@H]3C[C@@H]3N2)c1 | 2710
Cl.Clc1cncc(OC[C@@H]2C[C@H]3C[C@H]3N2)c1 | 1190
Cl.Clc1ccc(OC[C@H]2C[C@@H]3C[C@@H]3N2)cn1 | 1770

# lookup: AUC at 24 h of `Cl.c1cncc(OC[C@@H]2C[C@H]3C[C@H]3N2)c1`
10900
